System: OVCAR-8 ovarian
PROTOCOL: NCI tumour cell line growth inhibition, 48 h
ENDPOINT: TGI

Reference set, count: 4
CCCCc1ccc(N=C(N)N)cc1 :: > 100 µM
NC1N=C(c2ccc(Cl)cc2)C2=C(N1)c1ccccc1CC2 (stereo not drawn) :: > 100 µM
CC(=O)OCCn1cnc2c(NCC=C(C)C)ncnc21 :: > 100 µM
CCOC(=O)c1nc2cc(C(F)(F)F)ccc2nc1Oc1ccc(C#N)cc1 :: > 100 µM

Okay, now this compound:
Query block: I am curious: what TGI value has been reported for COc1cc(/C=C2\C(=O)N(C(=O)Cc3ccccc3)N=C2C)cc(OC)c1OC ?
Result block: > 100 µM

###

Test system: MDA-N
PROTOCOL: NCI tumour cell line growth inhibition, 48 h
Where a SMILES comes first, the peptide text is derived from it. [ ]: non-standard residue; d: D form. The star is where a group is joined. ξ: configuration not given here. ξNMe2Val = CC(C)C(C(=O)*)N(C)C; NMeV = CN[CH](C(=O)O)C(C)C; NHBn = c1ccc(CN*)cc1
ENDPOINT: TGI

Below are worked cases with known answers.
COc1ccc(S(=O)(=O)N2C(=O)CCC2C(=O)NC(N)=O)cc1 (stereo not drawn) :: > 100 µM
CC(C)C(NC(=O)C(C(C)C)N(C)C)C(=O)N(C)C(C(=O)N1CCCC1C(=O)N1CCCC1C(=O)NCc1ccccc1)C(C)C (stereo not drawn) (ξNMe2Val-V[NMeV]PP-NHBn; configuration not given here) :: < 0.0001 µM
CC(C)[N+]([O-])(CCCNc1c2ccccc2nc2cccc([N+](=O)[O-])c12)C(C)C :: 0.137 µM
Oc1c(Br)cc(/C=C/c2ccnc(/C=C/c3cc(Br)c(O)c(Br)c3)c2)cc1Br :: 91.3 µM
O=C1C2C(C(=O)N1c1ccccc1)C1(c3ccccc3)CCC2(C(=O)c2ccccc2)O1 (stereo not drawn) :: > 10 µM
COc1cc(C(=O)NC2CCc3cc(OC)c(OC)c(OC)c3-c3ccc(OC)c(=O)cc32)cc(OC)c1OC (stereo not drawn) :: 0.0961 µM
CCOC(=O)Cc1csc(NC(NC(=O)OCC)(C(=O)OCC)C(F)(F)F)n1 (stereo not drawn) :: > 100 µM

The record that follows has no TGI shown yet.
Query block: Entry under review: O=C(O)c1cc(-c2ccc3cc4c(cc3c2)OCO4)nc2ccccc12 . Reported TGI?
Result block: > 100 µM

###

Tested on: BT-549 breast
PROTOCOL: NCI tumour cell line growth inhibition, 48 h
ENDPOINT: TGI

Use these answered entries as a reference point.
O=C(C=P(c1ccccc1)(c1ccccc1)c1ccccc1)c1ccc(-c2cccs2)cc1 :: 40.7 µM
COc1ccc(C2(Cl)c3ccccc3N(c3ccccc3)c3ccccc32)cc1 :: 1.42 µM
CC1=NN(c2nc(N)nc(CN3CCOCC3)n2)C(C)(C)C1 :: > 100 µM
O=C(NCCCCN1CCOCC1)c1cc2ccccc2o1 :: > 100 µM
CCCCc1ccc(N=C(N)N)cc1 :: 90.7 µM

Query block: Requested field: TGI. Item: CC(C)[N+]([O-])(CCCNc1c2ccccc2nc2cccc([N+](=O)[O-])c12)C(C)C
Result block: 0.221 µM

Query block: # TGI lookup, item Cc1cc(S(=O)(=O)NC2=NCc3nc4ccccc4n32)c(S)cc1Cl
Result block: 71.9 µM

Query block: Please give the measured TGI for this compound: CC1Cc2c(Cl)ncnc2N(C)c2ccc(Cl)cc21 (stereo unspecified)
Result block: 11.1 µM

Query block: Which value of TGI has been reported for CSC12c3cc(C)n(-c4ccc([N+](=O)[O-])cc4)c3CC(C)(C)CN1C(=O)C2Oc1ccccc1 (stereo unspecified) in the records?
Result block: > 100 µM

Query block: Would you mind telling me what TGI value was observed for Cc1nc([N+](=O)[O-])cn1-c1nc2ccccn2c1[N+](=O)[O-] ?
Result block: > 100 µM

Query block: // returns reported TGI for input Nc1nc(Cl)cc(NCC2(O)CCC2)n1
Result block: > 100 µM

###

System: NCI-H522 lung
PROTOCOL: NCI tumour cell line growth inhibition, 48 h
Let's look at some molecules and their measured TGI.

Solved entries (count: 4):
COc1ccc(C(=O)C#Cc2cn(C3CC(O)C(CO)O3)c(=O)[nH]c2=O)cc1 (stereo not given) :: 24.5 µM
CC(=O)c1nc2ccccc2n1C(C)C(=O)c1ccccc1 (stereo not given) :: > 100 µM
COc1cccc(/C=N/n2c(Cc3ccccc3)n[nH]c2=O)c1 :: > 100 µM
COC(=O)[C@]12CC3C=CC1N(C3)C(CBr)c1c2n(S(=O)(=O)c2ccccc2)c2ccccc12 (stereo not given in full) :: > 100 µM

// moving on: another record for TGI
Query block: Given the entry CCOC(=O)Cc1csc(NC(NC(=O)OCC)(C(=O)OCC)C(F)(F)F)n1 (stereo not given) , report its measured TGI.
Result block: > 100 µM

###

System: NCI-H522 lung
PROTOCOL: NCI tumour cell line growth inhibition, 48 h; in the data active = GI50 below about 0.43 µM; inactive = the rest
Can you answer with just one of these options? active, inactive

Solved cases below.
Cc1cc2c(C(=O)NC[C@H](C)c3ccccc3)c(O)c(O)cc2c(O)c1-c1c(C)cc2c(C(=O)NC[C@H](C)c3ccccc3)c(O)c(O)cc2c1O :: active
COc1cc(/C=C/c2cc(/C=C/c3ccc(O)c(OC)c3)n(C(=O)c3ccc(Cl)cc3)n2)ccc1O :: inactive
Oc1c(Cl)cc(Cl)c(Cl)c1CNCCNCc1c(O)c(Cl)cc(Cl)c1Cl :: inactive
Cc1cc2nc(NCCN)n(Cc3ccc(F)c(Cl)c3)c2cc1C :: inactive
O=C(CN(/C=C/C(=O)C(F)(F)F)c1ccc(Cl)cc1)c1ccc(Cl)cc1 :: inactive

Query block: How was O=C(CSc1nc2c(n1Nc1ccccc1)-c1ccccc1SC2)Nc1nc(-c2ccc(Cl)cc2)cs1 classified in this test?
Result block: inactive

Query block: What is the recorded call for this compound in the test? CC(=O)O[C@@H]1C2CCC3C(CC[C@@]4(C)C3CC[C@@H]4C(C)N(C)C)[C@@]2(C)CC[C@@H]1NC(=O)C=C(C)C (stereo not given in full)
Result block: inactive

Query block: State the result this test recorded for COc1cc(/C=C2\CC3C4CC=C5C[C@@H](OC(C)=O)CC[C@]5(C)C4CC[C@]3(C)C2=O)ccc1OCCN1CCCCC1 (stereo not given in full) .
Result block: inactive

Query block: Status in this test for Cc1cnc2n1S(=O)(=O)c1cc(C(=O)Nc3cccc4nsnc34)c(Cl)cc1S2 ?
Result block: inactive

Query block: Dear colleague, could you share the recorded outcome for COc1ccc2ncn(-c3cc(O[C@H](C)c4ccccc4C(F)(F)F)c(C(N)=O)s3)c2c1 when you have a moment?
Result block: active

Query block: What call does the record list for CNC(=O)c1c(C)oc2cc(Oc3ncnc4cc(OC)c(OC)cc34)ccc12 ?
Result block: inactive

Query block: // param item: COc1ccccc1Nc1cc(O)c2c(=O)cc(-c3ccccc3)oc2c1 ; yields the recorded call
Result block: inactive

Query block: // outcome(item) with item = COc1ccc2c(c1)C(=O)c1c-2n(CCCN(C)C)c(=O)c2ccccc12
Result block: active

Query block: Assay result, entry COc1ccc(Nc2nc3cc(N)cc(N)c3nc2-c2ccccc2)cc1 — outcome?
Result block: inactive

Query block: Recorded test outcome, item C=CN(C(=O)N1CCN(c2cc3c(cc2F)c(=O)c(C(=O)O)cn3C2CC2)CC1)c1nc(-c2ccc(OC)cc2)cs1
Result block: inactive

###

Test system: U251 CNS
PROTOCOL: NCI tumour cell line growth inhibition, 48 h
ENDPOINT: TGI

Example results:
CCOC(=O)c1cc(C2CCN(c3ccccc3)C2=O)c(/C(O)=C/C(C)=O)[nH]1 (stereo not given) :: > 100 µM
Cc1nc([N+](=O)[O-])cn1-c1nc2ccccn2c1[N+](=O)[O-] :: > 100 µM
COc1cccc2c1c1ccc3c(c1n2C)C(=O)C=CC3=O :: > 100 µM
N#CC12C(=O)N3C(=NC(c4ccco4)NC3c3ccco3)C1(C#N)C(c1ccco1)NC1=C2CCCC1 (stereo not given) :: > 100 µM
COc1ccc(CNc2cnc3cc(N)ccc3n2)cc1 :: > 100 µM
CC1=C(C#N)C(=C(C#N)C#N)OC1(C)Cc1ccccc1 (stereo not given) :: > 100 µM

Query block: What TGI value was documented for this compound, Oc1c(Br)cc(/C=C/c2ccnc(/C=C/c3cc(Br)c(O)c(Br)c3)c2)cc1Br ?
Result block: 30.8 µM

Query block: TGI for CC(=O)Nc1ccc2c(c1)/C(=C\c1ccc([N+](C)(C)C)cc1)c1ccccc1-2 ?
Result block: > 100 µM

Query block: Entry CCOCCOCCOCc1nc(C#N)c(N)o1 has what TGI?
Result block: > 100 µM

Query block: # query: TGI of entry Cc1cc(S(=O)(=O)Nc2n[nH]c(-c3ccc(Cl)cc3)n2)c(SSc2cc(Cl)c(C)cc2S(=O)(=O)Nc2n[nH]c(-c3ccc(Cl)cc3)n2)cc1Cl
Result block: 78.6 µM

Query block: Which TGI value belongs to CNC(=O)C(C)NC(=O)C(Cc1ccccc1)NC(=O)c1ccccc1 (stereo not given) ?
Result block: > 100 µM

Query block: Consider the compound shown here: c1ccc2c(CSCc3cccc4ccccc34)cccc2c1 What is its recorded TGI?
Result block: > 100 µM

Query block: Look at this compound and give its reported TGI. Cc1ccc(C)n1-c1ccccc1C1C=Cn2c(=O)nnc3c(OC(C)C)c(OC(C)C)c(O)c1c32 (stereo not given)
Result block: > 100 µM

Query block: Consider the compound shown here: CC(=O)O[C@@H]1C2CCC3C(CC[C@@]4(C)C3CC[C@@H]4C(C)N(C)C)[C@@]2(C)CC[C@@H]1NC(=O)C=C(C)C (stereo not given in full) What is its recorded TGI?
Result block: 8.61 µM

Query block: What does the data say about its TGI? Entry: COc1cc2c(c(OC)c1OC)-c1ccc(OC)c(=O)cc1C(NC(=O)COc1ccccc1)CC2 (stereo not given)
Result block: 13 µM

Query block: Any idea what its TGI is? The compound is Cc1c(C)c2ccc(OCC(O)COC(C)C)c(C)c2oc1=O (stereo not given)
Result block: 33.8 µM

Query block: What measured TGI goes with COc1cc(/C=C2\CC3C4CC=C5C[C@@H](OC(C)=O)CC[C@]5(C)C4CC[C@]3(C)C2=O)ccc1OCCN1CCCCC1 (stereo not given in full) ?
Result block: 8.26 µM
